Assay summary: Acute toxicity in rats
Assay context: rat, in vivo, po, per os, observation period 14 days, read-out: DL50 (the source's name)
Observed property: LD50

Given COc1ccc2[nH]cc(CCNC(C)=O)c2c1 [melatonin, reference compound] , state its recorded LD50.
> 800 mg/kg

----------
Assay summary: in vivo
Set-up: species or system rabbits
Assay context: rabbit, iv
Observed property: LD50 at 336 h
# output: number + unit

# input molecule: COc1ccc2[nH]cc(CCNC(C)=O)c2c1 [melatonin, reference compound] ; wanted: its LD50 at 336 h
394 mg/kg

----------
Assay summary: Acute toxicity in rats
Assay context: rat, in vivo, ip, intraperitoneally, observation period 14 days, read-out: DL50
Observed property: LD50 at 336 h

Could you share which LD50 at 336 h value was measured for COc1ccc2[nH]cc(CCNC(C)=O)c2c1 [melatonin, reference compound] ?
462 mg/kg
